# tgt: HIV-1 JR-FL Env E168K (HIV-1 JR-FL)
# protocol.summary: cell-based or functional assay
endpoint.label: IC50 (ug/ml), pseudovirus neutralization, TZM-bl assay

[[record]]
binder = "1469_M23 (PG16) (TCN-118) (antibody, V domains shown) VH: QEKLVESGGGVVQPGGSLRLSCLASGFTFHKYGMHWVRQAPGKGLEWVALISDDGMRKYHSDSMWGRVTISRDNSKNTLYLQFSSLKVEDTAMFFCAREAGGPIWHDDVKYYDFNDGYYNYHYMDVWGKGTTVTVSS VL: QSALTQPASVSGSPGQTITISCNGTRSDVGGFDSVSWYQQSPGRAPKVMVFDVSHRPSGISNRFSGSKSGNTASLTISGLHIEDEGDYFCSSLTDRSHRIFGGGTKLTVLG"
assay_result = "0.005 µg/mL"

[[record]]
binder = "1456_A12 (PG16) (TCN-117) (antibody, V domains shown) VH: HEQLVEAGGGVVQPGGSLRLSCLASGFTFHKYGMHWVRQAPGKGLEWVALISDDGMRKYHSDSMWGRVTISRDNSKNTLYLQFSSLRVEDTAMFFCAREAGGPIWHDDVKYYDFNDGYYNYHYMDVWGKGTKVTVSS VL: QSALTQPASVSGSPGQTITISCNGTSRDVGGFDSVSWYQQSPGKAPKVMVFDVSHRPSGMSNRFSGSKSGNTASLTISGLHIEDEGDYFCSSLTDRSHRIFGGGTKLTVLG"
assay_result = "0.003 µg/mL"

[[record]]
binder = "1489_I13 (PG16) (TCN-120) (antibody, V domains shown) VH: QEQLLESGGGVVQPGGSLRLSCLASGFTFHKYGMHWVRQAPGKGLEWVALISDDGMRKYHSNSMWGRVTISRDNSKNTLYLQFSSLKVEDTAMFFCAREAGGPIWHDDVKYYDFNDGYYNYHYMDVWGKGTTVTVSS VL: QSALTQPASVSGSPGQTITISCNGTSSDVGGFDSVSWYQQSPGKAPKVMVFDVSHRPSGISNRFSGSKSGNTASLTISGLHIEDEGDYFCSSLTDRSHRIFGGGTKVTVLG"
assay_result = "0.005 µg/mL"

[[record]]
binder = "1503_H05 (PG16) (TCN-119) (antibody, V domains shown) VH: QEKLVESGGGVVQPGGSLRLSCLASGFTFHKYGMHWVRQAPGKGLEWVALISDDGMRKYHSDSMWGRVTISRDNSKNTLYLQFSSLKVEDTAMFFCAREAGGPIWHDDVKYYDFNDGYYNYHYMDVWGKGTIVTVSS VL: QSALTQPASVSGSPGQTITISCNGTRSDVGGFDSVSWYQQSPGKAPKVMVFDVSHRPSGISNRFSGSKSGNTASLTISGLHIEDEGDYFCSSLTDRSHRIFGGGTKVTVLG"
assay_result = "0.002 µg/mL"


Reference source: patent US20250320281A1
